Test system: NCI-H1703
Test: relative viability (nuclei count vs DMSO), 5 days (fraction); higher = more cells survive
Details: first compound 0.8 µM
Entries and their measured relative viability follow.
Please reply with the value in numeric form only.

CCCCCCCCCCCC1=C(O)C(=O)C=C(O)C1=O [Embelin] + O=C(c1cc(Cc2n[nH]c(=O)c3ccccc23)ccc1F)N1CCN(C(=O)C2CC2)CC1 [Olaparib] (partner 8 µM) = 0.442
CCCCCCCCCCCC1=C(O)C(=O)C=C(O)C1=O [Embelin] + Cc1nc(NC(=O)N2CCC[C@H]2C(N)=O)sc1-c1ccnc(C(C)(C)C(F)(F)F)c1 [Alpelisib] (partner 2 µM) = 0.436
CCCCCCCCCCCC1=C(O)C(=O)C=C(O)C1=O [Embelin] + CC(C)C[C@H](NC(=O)[C@H](Cc1ccccc1)NC(=O)c1cnccn1)B(O)O [Bortezomib] (partner 0.002 µM) = 0.549

I would be grateful if you could share the reported relative viability for CCCCCCCCCCCC1=C(O)C(=O)C=C(O)C1=O [Embelin] + NC(=O)Nc1cc(-c2cccc(F)c2)sc1C(=O)N[C@H]1CCCNC1 [AZD7762] (partner 0.2 µM) .
0.166

----------
Tested on: NCI-H1755
Assay: relative viability (nuclei count vs DMSO), 5 days (fraction); higher = more cells survive
Settings: first compound 8 µM
So basically: is relative viability under 0.8? Then Met. Not under? Then Not met.

Does the reported relative viability of the following molecule sit strictly below 0.8? CCCCCCCCCCCC1=C(O)C(=O)C=C(O)C1=O [Embelin] + Nc1ncn([C@H]2C[C@H](O)[C@@H](CO)O2)c(=O)n1 [Decitabine] (partner 2 µM)
Met

Does the reported relative viability of the following molecule sit strictly below 0.8? CCCCCCCCCCCC1=C(O)C(=O)C=C(O)C1=O [Embelin] + NC(=O)Nc1cc(-c2cccc(F)c2)sc1C(=O)N[C@H]1CCCNC1 [AZD7762] (partner 0.2 µM)
Met

----------
Entries and their measured relative viability follow.
Test system: NCI-H1437
Test: relative viability (nuclei count vs DMSO), 5 days (fraction); higher = more cells survive
Settings: first compound 8 µM
Please reply with the value in numeric form only.

Here's what some known entries look like.
CCCCCCCCCCCC1=C(O)C(=O)C=C(O)C1=O [Embelin] + CS(=O)(=O)N1CCN(Cc2cc3nc(-c4cccc5[nH]ncc45)nc(N4CCOCC4)c3s2)CC1 [Pictilisib] (partner 1 µM) = 0.364
CCCCCCCCCCCC1=C(O)C(=O)C=C(O)C1=O [Embelin] + C[C@@H](Oc1cc(-c2cnn(C3CCNCC3)c2)cnc1N)c1c(Cl)ccc(F)c1Cl [Crizotinib] (partner 1 µM) = 0.452

Request - read-out relative viability | tested on NCI-H1437 | compound CCCCCCCCCCCC1=C(O)C(=O)C=C(O)C1=O [Embelin] + CC(C)C[C@H](NC(=O)[C@H](Cc1ccccc1)NC(=O)c1cnccn1)B(O)O [Bortezomib] (partner 0.002 µM)
0.347

Request - read-out relative viability | tested on NCI-H1437 | compound CCCCCCCCCCCC1=C(O)C(=O)C=C(O)C1=O [Embelin] + Cc1nc(NC(=O)N2CCC[C@H]2C(N)=O)sc1-c1ccnc(C(C)(C)C(F)(F)F)c1 [Alpelisib] (partner 2 µM)
0.697

----------
Tested on: NCI-H3122
Assay: relative viability (nuclei count vs DMSO), 5 days (fraction); higher = more cells survive
Settings: first compound 4 µM
So basically: is relative viability under 0.5? Then MET. Not under? Then NOT MET.

Does the reported relative viability of the following compound sit strictly below 0.5? Clc1ccc(Nc2nnc(Cc3ccncc3)c3ccccc23)cc1 [Vatalanib] + CS(=O)(=O)CCNCc1ccc(-c2ccc3ncnc(Nc4ccc(OCc5cccc(F)c5)c(Cl)c4)c3c2)o1 [Lapatinib] (partner 2 µM)
NOT MET

Does the reported relative viability of the following compound sit strictly below 0.5? COc1cc(N2CCC(C(N)=O)CC2)ccc1Nc1nc(N)c(Cl)c(Nc2ccccc2S(=O)(=O)C(C)C)n1 [HG-5-88-01] + NC(=O)Nc1cc(-c2cccc(F)c2)sc1C(=O)N[C@H]1CCCNC1 [AZD7762] (partner 0.2 µM)
MET

Does the reported relative viability of the following compound sit strictly below 0.5? Clc1ccc(Nc2nnc(Cc3ccncc3)c3ccccc23)cc1 [Vatalanib] + CCNC(=O)c1noc(-c2cc(C(C)C)c(O)cc2O)c1-c1ccc(CN2CCOCC2)cc1 [Luminespib] (partner 0.01 µM)
MET

Does the reported relative viability of the following compound sit strictly below 0.5? COc1cc(N2CCC(C(N)=O)CC2)ccc1Nc1nc(N)c(Cl)c(Nc2ccccc2S(=O)(=O)C(C)C)n1 [HG-5-88-01] + Cc1nc(NC(=O)N2CCC[C@H]2C(N)=O)sc1-c1ccnc(C(C)(C)C(F)(F)F)c1 [Alpelisib] (partner 2 µM)
MET

Does the reported relative viability of the following compound sit strictly below 0.5? C[C@@H]1CN(CC(=O)Nc2ccc3c(c2)Cc2cccc(-c4cc(=O)cc(N5CCOCC5)o4)c2S3)C[C@H](C)O1 + COc1cccc2cc(-c3nc([C@H]4CC[C@H](C(=O)O)CC4)n4ncnc(N)c34)[nH]c12 [OSI-027] (partner 0.5 µM)
NOT MET

----------
Tested on: NCI-H1734
Assay: relative viability (nuclei count vs DMSO), 5 days (fraction); higher = more cells survive
Conditions: first compound 4 µM
Entries and their measured relative viability follow.
Please reply with the value in numeric form only.

Clc1ccc(Nc2nnc(Cc3ccncc3)c3ccccc23)cc1 [Vatalanib] + CC1(C)CCC(c2ccc(Cl)cc2)=C(CN2CCN(c3ccc(C(=O)NS(=O)(=O)c4ccc(N[C@H](CCN5CCOCC5)CSc5ccccc5)c(S(=O)(=O)C(F)(F)F)c4)cc3)CC2)C1 [Navitoclax] (partner 0.5 µM) = 0.822
C[C@@H]1CN(CC(=O)Nc2ccc3c(c2)Cc2cccc(-c4cc(=O)cc(N5CCOCC5)o4)c2S3)C[C@H](C)O1 + CS(=O)(=O)CCNCc1ccc(-c2ccc3ncnc(Nc4ccc(OCc5cccc(F)c5)c(Cl)c4)c3c2)o1 [Lapatinib] (partner 2 µM) = 1.23

Now let's try a different one.
I would be grateful if you could share the reported relative viability for Clc1ccc(Nc2nnc(Cc3ccncc3)c3ccccc23)cc1 [Vatalanib] + C[C@]1(O)C[C@@H](c2nc(-c3ccc4ccc(-c5ccccc5)nc4c3)c3c(N)nccn32)C1 [Linsitinib] (partner 1 µM) .
0.859

----------
Tested on: NCI-H1755
Assay: relative viability (nuclei count vs DMSO), 5 days (fraction); higher = more cells survive
Details: first compound 2.53 µM
So basically: is relative viability under 0.4? Then met. Not under? Then not met.

CCCCCCCCCCCC1=C(O)C(=O)C=C(O)C1=O [Embelin] + Cc1nc(Nc2ncc(C(=O)Nc3c(C)cccc3Cl)s2)cc(N2CCN(CCO)CC2)n1 [Dasatinib] (partner 0.075 µM) = met
CCCCCCCCCCCC1=C(O)C(=O)C=C(O)C1=O [Embelin] + CC(C)C[C@H](NC(=O)[C@H](Cc1ccccc1)NC(=O)c1cnccn1)B(O)O [Bortezomib] (partner 0.002 µM) = not met
CCCCCCCCCCCC1=C(O)C(=O)C=C(O)C1=O [Embelin] + Nc1nc2[nH]cc(CCc3ccc(C(=O)N[C@@H](CCC(=O)O)C(=O)O)cc3)c2c(=O)[nH]1 [Pemetrexed] (partner 0.2 µM) = not met
CCCCCCCCCCCC1=C(O)C(=O)C=C(O)C1=O [Embelin] + COc1cc2c(Oc3ccc(NC(=O)C4(C(=O)Nc5ccc(F)cc5)CC4)cc3F)ccnc2cc1OCCCN1CCOCC1 [Foretinib] (partner 0.25 µM) = not met

Does the reported relative viability of the following compound sit strictly below 0.4? CCCCCCCCCCCC1=C(O)C(=O)C=C(O)C1=O [Embelin] + CS(=O)(=O)N1CCN(Cc2cc3nc(-c4cccc5[nH]ncc45)nc(N4CCOCC4)c3s2)CC1 [Pictilisib] (partner 1 µM)
met

----------
System: NCI-H1650
Assay: relative viability (nuclei count vs DMSO), 5 days (fraction); higher = more cells survive
Settings: first compound 2.53 µM
Entries and their measured relative viability follow.
Please reply with the value in numeric form only.

Request - read-out relative viability | tested on NCI-H1650 | compound CCCCCCCCCCCC1=C(O)C(=O)C=C(O)C1=O [Embelin] + Cc1nc(Nc2ncc(C(=O)Nc3c(C)cccc3Cl)s2)cc(N2CCN(CCO)CC2)n1 [Dasatinib] (partner 0.075 µM)
0.337

----------
Entries and their measured relative viability follow.
System: BEN
Assay: relative viability (nuclei count vs DMSO), 5 days (fraction); higher = more cells survive
Conditions: first compound 0.04 µM
Please reply with the value in numeric form only.

I would be grateful if you could share the reported relative viability for COc1cc(N2CCC(C(N)=O)CC2)ccc1Nc1nc(N)c(Cl)c(Nc2ccccc2S(=O)(=O)C(C)C)n1 [HG-5-88-01] + COc1cc2c(Oc3ccc(NC(=O)C4(C(=O)Nc5ccc(F)cc5)CC4)cc3F)ccnc2cc1OCCCN1CCOCC1 [Foretinib] (partner 0.25 µM) .
0.399

I would be grateful if you could share the reported relative viability for COc1cc(N2CCC(C(N)=O)CC2)ccc1Nc1nc(N)c(Cl)c(Nc2ccccc2S(=O)(=O)C(C)C)n1 [HG-5-88-01] + Cc1nc(Nc2ncc(C(=O)Nc3c(C)cccc3Cl)s2)cc(N2CCN(CCO)CC2)n1 [Dasatinib] (partner 0.075 µM) .
0.227

I would be grateful if you could share the reported relative viability for COc1cc(N2CCC(C(N)=O)CC2)ccc1Nc1nc(N)c(Cl)c(Nc2ccccc2S(=O)(=O)C(C)C)n1 [HG-5-88-01] + COc1cccc2cc(-c3nc([C@H]4CC[C@H](C(=O)O)CC4)n4ncnc(N)c34)[nH]c12 [OSI-027] (partner 0.5 µM) .
0.305

I would be grateful if you could share the reported relative viability for COc1cc(N2CCC(C(N)=O)CC2)ccc1Nc1nc(N)c(Cl)c(Nc2ccccc2S(=O)(=O)C(C)C)n1 [HG-5-88-01] + Nc1ncn([C@H]2C[C@H](O)[C@@H](CO)O2)c(=O)n1 [Decitabine] (partner 2 µM) .
0.532

I would be grateful if you could share the reported relative viability for COc1cc(N2CCC(C(N)=O)CC2)ccc1Nc1nc(N)c(Cl)c(Nc2ccccc2S(=O)(=O)C(C)C)n1 [HG-5-88-01] + C[C@@H](Oc1cc(-c2cnn(C3CCNCC3)c2)cnc1N)c1c(Cl)ccc(F)c1Cl [Crizotinib] (partner 1 µM) .
0.975

Values from the supplement of paper PMC10307832
